Entry source: ChEMBL document CHEMBL1833797

System: Bacillus subtilis
Assay remarks: Antimicrobial activity against Bacillus subtilis MTCC 441 for 24 hrs by microdilution method
Format: functional
Conditions used: MTCC 441, 24 h

{"columns": ["Compound", "Value units", "MIC"],
 "data": [
  ["COc1ccc2nc(N3CCOCC3)c(C3C(C#N)=C(N)Oc4cc(C)oc(=O)c43)cc2c1 (centres undefined)", "µg/mL", 200],
  ["N#CC1=C(N)Oc2cc(O)ccc2C1c1cc2ccccc2nc1N1CCOCC1 (centres undefined)", "µg/mL", 250],
  ["CC1(C)S[C@@H]2[C@H](NC(=O)[C@H](N)c3ccccc3)C(=O)N2[C@H]1C(=O)O", "µg/mL", 250],
  ["Cc1ccc2nc(N3CCOCC3)c(C3C(C#N)=C(N)OC4=C3C(=O)CC(C)(C)C4)cc2c1 (centres undefined)", "µg/mL", 200],
  ["Cc1n[nH]c2c1C(c1cc3ccccc3nc1N1CCOCC1)C(C#N)=C(N)O2 (centres undefined)", "µg/mL", 250],
  ["COc1ccc2nc(N3CCOCC3)c(C3C(C#N)=C(N)Oc4[nH]nc(C)c43)cc2c1 (centres undefined)", "µg/mL", 200],
  ["COc1ccc2nc(N3CCOCC3)c(C3C(C#N)=C(N)Oc4c3ccc3ccccc43)cc2c1 (centres undefined)", "µg/mL", 250],
  ["COc1ccc2nc(N3CCOCC3)c(C3C(C#N)=C(N)OC4=C3C(=O)CC(C)(C)C4)cc2c1 (centres undefined)", "µg/mL", 100],
  ["Cc1ccc2nc(N3CCOCC3)c(C3C(C#N)=C(N)Oc4cc(C)oc(=O)c43)cc2c1 (centres undefined)", "µg/mL", 500]
]}
